Percent Inhibition for assorted compounds
Target System: HIV protease (Human immunodeficiency virus type 1 group M subtype B, UniProt P04585)
Assay Protocol: Fluorogenic assay for screening inhibitors of HIV protease
Format: biochemical
Run Parameters: Inhibitor Concentration 0.5 nanomolar
Description: Fluorogenic Assay for Screening Inhibitors of HIV Protease The inhibitory potency of the compound of the invention can be determined by the following method. The compound of the invention is dissolved in DMSO and a small aliquot further diluted with DMSO to 100 times the final concentration desired for testing. […] The fluorescence intensity (excitation 340 nm, emmision 490 nM) is recorded as a function of time. The reaction rate is determined for the first six to eight minutes. […]
Experimental Readout: Percent Inhibition (%)

[[record]]
compound = "Cc1cccc(C)c1OCC(=O)N[C@@H](Cc1ccccc1)[C@@H](O)C[C@H](Cc1ccccc1)NC(=O)[C@H](C(C)C)N1CCNC1=O [Example 1P]"
result_value = 92.6

[[record]]
compound = "CC(C)[C@@H](C(=O)N[C@@H](Cc1ccccc1)C[C@H](O)[C@H](Cc1ccccc1)NC(=O)O[C@H]1CO[C@H]2OCC[C@H]21)N1CCNC1=O [Example 5]"
result_value = 80.8

[[record]]
compound = "Cc1cccc(C)c1OCC(=O)N[C@@H](Cc1ccccc1)[C@@H](O)C[C@H](Cc1ccccc1)NC(=O)[C@H](C(C)C)N1CCNNC1=O [Example 26H]"
result_value = 94.6


---

Target System: HIV protease (Human immunodeficiency virus type 1 group M subtype B, UniProt P04585)
Assay Protocol: Fluorogenic assay for screening inhibitors of HIV protease
Type: biochemical
Run Parameters: Inhibitor Concentration 0.5 nanomolar
compounds and their reported Percent Inhibition
Experimental Readout: Percent Inhibition (%)

[[record]]
compound = "Cc1cccc(C)c1/C=C/C(=O)N[C@@H](Cc1ccccc1)[C@@H](O)C[C@H](Cc1ccccc1)NC(=O)[C@H](C(C)C)N1CCCNC1=O (relative stereo) [Example 19E]"
result_value = 68.5

[[record]]
compound = "Cc1cccc(C)c1OCC(=O)N[C@@H](Cc1ccccc1)[C@@H](O)C[C@H](NC(=O)[C@H](C(C)C)N1CCC(=O)NC1=O)C(C)C"
result_value = 86.6

[[record]]
compound = "Cc1cccc(C)c1OCC(=O)N[C@@H](Cc1ccccc1)[C@@H](O)C[C@H](Cc1ccccc1)NC(=O)[C@H](C(C)C)N1CCNC(=O)C1=O [Example 29C]"
result_value = 72.6

